experimental_system: RPS6KA2 KD1 (human) (UniProt Q15349)
Sequence (Q15349 whole entry, looked up): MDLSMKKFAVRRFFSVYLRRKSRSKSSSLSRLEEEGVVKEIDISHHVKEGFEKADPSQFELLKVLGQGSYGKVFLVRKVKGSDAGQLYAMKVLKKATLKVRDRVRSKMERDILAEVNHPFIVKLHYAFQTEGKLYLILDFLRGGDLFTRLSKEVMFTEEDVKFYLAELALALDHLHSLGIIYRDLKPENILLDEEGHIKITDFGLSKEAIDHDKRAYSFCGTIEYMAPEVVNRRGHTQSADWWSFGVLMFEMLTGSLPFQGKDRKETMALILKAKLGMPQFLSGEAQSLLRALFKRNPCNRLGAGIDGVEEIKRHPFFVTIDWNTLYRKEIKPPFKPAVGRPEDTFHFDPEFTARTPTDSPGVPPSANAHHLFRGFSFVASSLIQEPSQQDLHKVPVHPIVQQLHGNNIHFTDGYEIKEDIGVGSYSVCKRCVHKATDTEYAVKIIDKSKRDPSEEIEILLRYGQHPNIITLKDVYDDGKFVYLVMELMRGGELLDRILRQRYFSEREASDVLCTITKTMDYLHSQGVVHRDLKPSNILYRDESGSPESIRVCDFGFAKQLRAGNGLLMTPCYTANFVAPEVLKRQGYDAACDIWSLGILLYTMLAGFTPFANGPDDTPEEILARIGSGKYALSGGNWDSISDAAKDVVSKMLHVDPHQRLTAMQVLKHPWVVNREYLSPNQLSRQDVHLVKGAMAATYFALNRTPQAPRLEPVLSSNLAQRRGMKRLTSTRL
test_summary: KINOMEscan competition binding
test_parameters: compound 10.0 µM
Answer each item with its documented kinase still bound, per cent of control.
Give bare numbers, in %.

# line_notation, kinase still bound, per cent of control [%]
measured = [
    ("COc1cc(C(=O)NC2CCN(C)CC2)ccc1Nc1ncc2c(n1)N(C1CCCC1)CCC(=O)N2C(C)C", 100),
    ("O=C1Nc2ccc(I)cc2/C1=C/c1cc(Br)c(O)c(Br)c1", 58),
]

Please report kinase still bound, per cent of control for every entry that follows.
1. N#Cc1c(NC(=O)c2cccc3ccccc23)sc2c1CCCC2
2. Cc1cc([C@@H](C)Nc2ccccc2C(=O)O)c2nc(N3CCOCC3)cc(=O)n2c1
3. Cc1ccc(C(=O)Nc2cccc(C(F)(F)F)c2)cc1Nc1cncc(C(N)=O)c1
4. COc1cc(N2CCN(C)CC2)ccc1Nc1nc(N)c(C(=O)c2c(Cl)cccc2Cl)s1
5. CCCS(=O)(=O)Nc1ccc(F)c(C(=O)c2c[nH]c3ncc(-c4ccc(Cl)cc4)cc23)c1F
6. C[C@@H](Oc1cc(-n2cnc3ccc(CN4CCN(C)CC4)cc32)sc1C(N)=O)c1ccccc1C(F)(F)F
7. O=C(NOC[C@H](O)CO)c1ccc(F)c(F)c1Nc1ccc(I)cc1F
8. OCCCNc1cc(-c2ccnc(Nc3cccc(Cl)c3)n2)ccn1

[93, 97, 100, 84, 39, 4, 100, 100]

====

experimental_system: CDKL3 (human)
test_summary: KINOMEscan competition binding
test_parameters: compound 10.0 µM
test_readout: kinase still bound, per cent of control
Put your answer as a value accompanied by its unit after it.

# line_notation, kinase still bound, per cent of control
records = [
    ("C=CC(=O)Nc1cccc(Nc2nc(N[C@H]3CC[C@H](N(C)C)CC3)nc3c2ncn3C(C)C)c1", "100%"),
    ("N#Cc1c(NC(=O)c2cccc3ccccc23)sc2c1CCCC2", "82%"),
    ("O=C1Nc2ccc(I)cc2/C1=C/c1cc(Br)c(O)c(Br)c1", "88%"),
    ("CCCS(=O)(=O)Nc1ccc(F)c(C(=O)c2c[nH]c3ncc(-c4ccc(Cl)cc4)cc23)c1F", "100%"),
]

# return kinase still bound, per cent of control for each item in the list
1. COc1cc(C(=O)NC2CCN(C)CC2)ccc1Nc1ncc2c(n1)N(C1CCCC1)CCC(=O)N2C(C)C
2. CCN1CCN(Cc2ccc(Nc3ncc4c(n3)N(C)c3ccccc3C(=O)N4C)cc2C(F)(F)F)CC1
3. C[C@@H](Oc1cc(-n2cnc3ccc(CN4CCN(C)CC4)cc32)sc1C(N)=O)c1ccccc1C(F)(F)F

1: 100%; 2: 100%; 3: 100%

====

Field: kinase still bound, per cent of control. Provide a value for each of the compounds that follow.
experimental_system: GRK4 (human)
test_summary: KINOMEscan competition binding
test_parameters: compound 10.0 µM

Some solved entries appear below for comparison.
# line_notation, kinase still bound, per cent of control
data = [
    ("O=C(NC1CC1)c1cccc(-c2ccc3c(NC(=O)C4CC4)n[nH]c3c2)c1", "14%"),
    ("Cn1c(=O)n(-c2ccc(C(C)(C)C#N)cc2)c2c3cc(-c4cnc5ccccc5c4)ccc3ncc21", "100%"),
    ("CCC(=O)N1CCN(c2ccc(-n3c(=O)ccc4cnc5ccc(-c6cnc7ccccc7c6)cc5c43)cc2C(F)(F)F)CC1", "90%"),
]

Provide kinase still bound, per cent of control for all items below, preserving their order.
1. CCN1CCN(Cc2ccc(Nc3ncc4c(n3)N(C)c3ccccc3C(=O)N4C)cc2C(F)(F)F)CC1
2. COc1cc(C(=O)NC2CCN(C)CC2)ccc1Nc1ncc2c(n1)N(C1CCCC1)CCC(=O)N2C(C)C

1. 56%
2. 100%

Taken from the kinase profiling compilation of Christmann-Franck et al. (2016).
